B1: r16_88_TrROS_Hall (parent)
chain: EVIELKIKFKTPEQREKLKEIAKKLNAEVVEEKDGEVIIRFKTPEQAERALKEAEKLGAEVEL

# Variants of: B1
# assay.notes: folding stability dG (cDNA display proteolysis); higher = more stable
# setup.conditions: PBS, room temperature

- variant.descriptor: "I3L"
  folding stability dG: "4.63 kcal/mol"
- variant.descriptor: "I38M"
  folding stability dG: "4.51 kcal/mol"
- variant.descriptor: "E13Y"
  folding stability dG: "4.76 kcal/mol"
- variant.descriptor: "E45W"
  folding stability dG: "4.37 kcal/mol"
- variant.descriptor: "G35E"
  folding stability dG: "4.14 kcal/mol"
- variant.descriptor: "L57N"
  folding stability dG: "4.35 kcal/mol"
- variant.descriptor: "P44L"
  folding stability dG: "4.65 kcal/mol"
- variant.descriptor: "N26R"
  folding stability dG: "4.42 kcal/mol"
- variant.descriptor: "K19W"
  folding stability dG: "4.7 kcal/mol"
- variant.descriptor: "A22E"
  folding stability dG: "4.17 kcal/mol"
- variant.descriptor: "Q14V"
  folding stability dG: "4.38 kcal/mol"
- variant.descriptor: "F41W"
  folding stability dG: "4 kcal/mol"
- variant.descriptor: "F41L"
  folding stability dG: "4.01 kcal/mol"
- variant.descriptor: "T11S"
  folding stability dG: "4.44 kcal/mol"
- variant.descriptor: "A47H"
  folding stability dG: "4.42 kcal/mol"
- variant.descriptor: "E55K"
  folding stability dG: "4.3 kcal/mol"
- variant.descriptor: "G35L"
  folding stability dG: "4.32 kcal/mol"
- variant.descriptor: "K6T"
  folding stability dG: "4.34 kcal/mol"
- variant.descriptor: "L5C"
  folding stability dG: "4.29 kcal/mol"
- variant.descriptor: "E48F"
  folding stability dG: "4.72 kcal/mol"
- variant.descriptor: "E62S"
  folding stability dG: "4.5 kcal/mol"
- variant.descriptor: "R15D"
  folding stability dG: "4.11 kcal/mol"

# credit: the MegaScale stability set (Tsuboyama et al. 2023)
